Reference source: patent US6046217A

EXPERIMENTAL_TARGET: COX-2 (Homo sapiens, UniProt P35354)
Sequence (P35354 18-604): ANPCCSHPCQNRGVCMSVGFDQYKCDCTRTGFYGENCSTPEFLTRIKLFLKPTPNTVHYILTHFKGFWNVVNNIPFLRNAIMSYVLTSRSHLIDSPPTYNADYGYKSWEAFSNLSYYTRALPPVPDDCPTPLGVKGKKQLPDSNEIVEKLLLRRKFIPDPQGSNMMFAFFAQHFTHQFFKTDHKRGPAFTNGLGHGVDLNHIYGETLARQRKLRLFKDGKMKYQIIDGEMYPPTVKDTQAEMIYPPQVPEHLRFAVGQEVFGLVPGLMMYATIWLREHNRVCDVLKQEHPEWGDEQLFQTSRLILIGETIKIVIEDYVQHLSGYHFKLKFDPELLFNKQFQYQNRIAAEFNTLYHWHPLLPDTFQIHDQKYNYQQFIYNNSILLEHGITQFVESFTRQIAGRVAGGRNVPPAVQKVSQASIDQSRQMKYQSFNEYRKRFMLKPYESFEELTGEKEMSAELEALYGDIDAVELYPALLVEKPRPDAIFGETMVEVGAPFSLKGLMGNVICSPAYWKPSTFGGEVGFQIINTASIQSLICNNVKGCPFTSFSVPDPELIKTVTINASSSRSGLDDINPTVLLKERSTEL
EXPERIMENT: cell-based
STUDY_CONDITIONS: human whole blood, LPS-induced PGE2, 24 h; read-out: COX-2 (IC50 mM) HWB
READOUT: IC50 (mM)
Report only the number, with the unit mM understood.

Below, each entry is followed by its recorded IC50 result.
CS(=O)(=O)c1ccc(-c2cc(C(F)(F)F)cnc2SCC2(O)CCCC2)cc1 [Example 49]: 0.0012
CC(C)(O)CSc1ncc(Cl)cc1-c1ccc(S(C)(=O)=O)cc1 [Example 44]: 0.0015
C[C@@H](O)[C@@H](C)Oc1ncc(Cl)cc1-c1ccc(S(C)(=O)=O)cc1 [Example 24]: 0.0015
C[C@]1(O)CCC[C@H]1Oc1ncc(C(F)(F)F)cc1-c1ccc(S(N)(=O)=O)cc1 (relative stereo) [Example 33]: 0.0037

Qu. Give its IC50 value. Item: C[C@@]1(O)CCCC[C@@H]1Oc1ncc(C(F)(F)F)cc1-c1ccc(S(C)(=O)=O)cc1 (relative stereo) [Example 37]
Ans. 0.0065

Qu. Give its IC50 value. Item: COCCOc1ncc(C(F)(F)F)cc1-c1ccc(S(C)(=O)=O)cc1 [Example 2]
Ans. 0.0013

Qu. Give its IC50 value. Item: CC(C)(O)CCOc1ncc(C(F)(F)F)cc1-c1ccc(S(C)(=O)=O)cc1 [Example 40]
Ans. 0.0039

Qu. Give its IC50 value. Item: C[C@H](O)[C@@H](C)Oc1ncc(C(F)(F)F)cc1-c1ccc(S(C)(=O)=O)cc1 [Example 25]
Ans. 0.0036

Qu. Give its IC50 value. Item: C[C@H](Oc1ncc(C(F)(F)F)cc1-c1ccc(S(C)(=O)=O)cc1)C(C)(C)O [Example 16]
Ans. 0.0006

Qu. Give its IC50 value. Item: CCC(C)(O)COc1ncc(C(F)(F)F)cc1-c1ccc(S(C)(=O)=O)cc1 (centres unmarked) [Example 7]
Ans. 0.001

Qu. Give its IC50 value. Item: C[C@@H](Oc1ncc(Cl)cc1-c1ccc(S(C)(=O)=O)cc1)C(C)(C)O [Example 18]
Ans. 0.0004

Qu. Give its IC50 value. Item: CCC(O)(CC)CSc1ncc(C(F)(F)F)cc1-c1ccc(S(C)(=O)=O)cc1 [Example 47]
Ans. 0.0006

Qu. Give its IC50 value. Item: CC(C)(O)COc1ncc(Cl)cc1-c1ccc(S(C)(=O)=O)cc1 [Example 5]
Ans. 0.0036

Qu. Give its IC50 value. Item: CC(C)(O)COc1ncc(C(F)(F)F)cc1-c1ccc(S(C)(=O)=O)cc1 [Example 4]
Ans. 0.0008

Qu. Give its IC50 value. Item: CCC(O)(CC)COc1ncc(Cl)cc1-c1ccc(S(C)(=O)=O)cc1 [Example 9]
Ans. 0.0016

Qu. Give its IC50 value. Item: CC[C@]1(O)CCC[C@H]1Oc1ncc(C(F)(F)F)cc1-c1ccc(S(C)(=O)=O)cc1 (relative stereo) [Example 36]
Ans. 0.0031

Qu. Give its IC50 value. Item: CCC(O)(CC)COc1ncc(C(F)(F)F)cc1-c1ccc(S(C)(=O)=O)cc1 [Example 8]
Ans. 0.0011

Qu. Give its IC50 value. Item: CC(C)(O)/C=C\c1ncc(Cl)cc1-c1ccc(S(C)(=O)=O)cc1 [Example 51]
Ans. 0.0008

Qu. Give its IC50 value. Item: C[C@]1(O)CCC[C@H]1Oc1ncc(Cl)cc1-c1ccc(S(C)(=O)=O)cc1 (relative stereo) [Example 34]
Ans. 0.0017

Qu. Give its IC50 value. Item: CS(=O)(=O)c1ccc(-c2cc(C(F)(F)F)cnc2OCC2(O)CC2)cc1 [Example 11]
Ans. 0.0016

Qu. Give its IC50 value. Item: CS(=O)(=O)c1ccc(-c2cc(C(F)(F)F)cnc2OCC2(O)CCC2)cc1 [Example 12]
Ans. 0.0013

Qu. Give its IC50 value. Item: CCC(Oc1ncc(C(F)(F)F)cc1-c1ccc(S(C)(=O)=O)cc1)C(C)(C)O (centres unmarked) [Example 19]
Ans. 0.0005

Qu. Give its IC50 value. Item: C[C@H](CCO)Oc1ncc(C(F)(F)F)cc1-c1ccc(S(C)(=O)=O)cc1 [Example 41]
Ans. 0.0004
